# credit: ChEMBL document CHEMBL3868641

concentration at 0.25 h values for the compounds below.
- procedure.text: Plasma concentration in rat at 0.25 mg/kg, iv administered through cassette dosing after 0.25 hrs by LC/MS/MS analysis
- Format: ADME, organism-based
# number then unit; no other words

Would you please look over these solved cases?
# smiles.notation, concentration at 0.25 h
rows = [
    ("Fc1ccc2[nH]cc(CN3CCC(F)(F)[C@@H](CCc4ccccc4)C3)c2c1", "25.3 ng/mL"),
    ("COc1ccc2c(CN3CCC(F)(F)[C@H](CCc4ccc(F)cc4)C3)c[nH]c2c1", "9.2 ng/mL"),
    ("Fc1ccc2c(CN3CCC(F)(F)[C@H](CCc4ccccc4F)C3)c[nH]c2c1", "30.4 ng/mL"),
]

stdin: Specify concentration at 0.25 h for Fc1ccc(CC[C@@H]2CN(Cc3c[nH]c4cc(F)ccc34)CCC2(F)F)cc1 and stop.
stdout: 13.2 ng/mL

stdin: Specify concentration at 0.25 h for Fc1ccc(CC[C@@H]2CN(Cc3c[nH]c4cc(Cl)ccc34)CCC2(F)F)cc1 and stop.
stdout: 14.9 ng/mL

stdin: Specify concentration at 0.25 h for Fc1ccc2c(CN3CCC(F)(F)[C@H](CCc4ccccc4)C3)c[nH]c2c1 and stop.
stdout: 28.6 ng/mL

stdin: Specify concentration at 0.25 h for Cc1ccc(CN2CCC(F)(F)[C@H](CCc3ccccc3)C2)cc1C and stop.
stdout: 44.4 ng/mL

stdin: Specify concentration at 0.25 h for Fc1ccccc1CC[C@@H]1CN(Cc2c[nH]c3cc(Cl)ccc23)CCC1(F)F and stop.
stdout: 54.8 ng/mL

stdin: Specify concentration at 0.25 h for COc1ccc2c(CN3CCC(F)(F)[C@H](CCc4cccc(F)c4)C3)c[nH]c2c1 and stop.
stdout: 39 ng/mL

====

- procedure.text: Ratio of drug level in brain to plasma in rat at 0.25 mg/kg, iv administered through cassette dosing after 0.25 hrs by LC/MS/MS analysis
- Type: ADME, organism-based
Kp at 0.25 h values for the compounds below.
// keep it numeric: no unit symbol after the value

Would you please look over these solved cases?
# smiles.notation, Kp at 0.25 h
records = [
    ("Cc1ccc(CN2CCC(F)(F)[C@H](CCc3ccccc3)C2)cc1C", 2.1),
    ("COc1ccc2c(CN3CCC(F)(F)[C@H](CCc4ccc(F)cc4)C3)c[nH]c2c1", 3.3),
    ("Fc1ccc2c(CN3CCC(F)(F)[C@H](CCc4ccccc4)C3)c[nH]c2c1", 3.5),
    ("Fc1ccc(CC[C@@H]2CN(Cc3c[nH]c4cc(F)ccc34)CCC2(F)F)cc1", 1.9),
    ("Fc1ccccc1CC[C@@H]1CN(Cc2c[nH]c3cc(Cl)ccc23)CCC1(F)F", 0.4),
]

stdin: Specify Kp at 0.25 h for COc1ccc2c(CN3CCC(F)(F)[C@H](CCc4cccc(F)c4)C3)c[nH]c2c1 and stop.
stdout: 1.1

stdin: Specify Kp at 0.25 h for Fc1ccc2c(CN3CCC(F)(F)[C@H](CCc4ccccc4F)C3)c[nH]c2c1 and stop.
stdout: 1.3

stdin: Specify Kp at 0.25 h for Fc1ccc(CC[C@@H]2CN(Cc3c[nH]c4cc(Cl)ccc34)CCC2(F)F)cc1 and stop.
stdout: 1.3

====

- assayed.target: D(2) dopamine receptor (Homo sapiens) (UniProt P14416)
- Sequence (P14416 whole entry): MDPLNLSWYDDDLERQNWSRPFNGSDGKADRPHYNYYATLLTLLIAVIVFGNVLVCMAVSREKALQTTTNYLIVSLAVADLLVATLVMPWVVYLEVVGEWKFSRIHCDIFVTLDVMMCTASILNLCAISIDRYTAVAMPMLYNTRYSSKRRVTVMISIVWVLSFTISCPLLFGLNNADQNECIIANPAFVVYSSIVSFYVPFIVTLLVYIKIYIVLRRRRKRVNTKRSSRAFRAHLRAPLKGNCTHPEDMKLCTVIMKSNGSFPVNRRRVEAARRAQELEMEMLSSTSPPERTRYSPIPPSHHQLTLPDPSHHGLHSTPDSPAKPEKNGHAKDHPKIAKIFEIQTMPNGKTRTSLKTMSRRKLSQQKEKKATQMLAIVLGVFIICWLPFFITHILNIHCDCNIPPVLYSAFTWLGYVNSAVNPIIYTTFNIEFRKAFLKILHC
- procedure.text: Displacement of [3H]Spiperone from recombinant human Dopamine D2S receptor expressed in CHO cell membranes at 10 uM after 120 mins relative to control
parameter.measured: inhibition

Would you please look over these solved cases?
# compound, inhibition
data = [
    ("COc1ccc2[nH]cc(CN3CCC(F)(F)C(CCc4ccccc4)C3)c2c1 (racemic)", "52%"),
    ("Fc1ccc2c(CN3CCC(F)(F)[C@H](CCc4ccccc4F)C3)c[nH]c2c1", "< 50%"),
    ("Fc1ccc(CC[C@H]2CN(Cc3c[nH]c4cc(F)ccc34)CCC2(F)F)cc1", "< 50%"),
    ("Fc1ccccc1CCC1CN(Cc2c[nH]c3cc(Cl)ccc23)CCC1(F)F (racemic)", "57%"),
    ("Fc1cccc(CCC2CN(Cc3c[nH]c4cc(F)ccc34)CCC2(F)F)c1 (racemic)", "< 50%"),
    ("COc1ccc2c(CN3CCC(F)(F)[C@H](CCc4ccc(F)cc4)C3)c[nH]c2c1", "< 30%"),
]

stdin: Specify inhibition for Cc1ccc(CN2CCC(F)(F)C(CCc3ccccc3)C2)cc1C (racemic) and stop.
stdout: < 20%

stdin: Specify inhibition for COc1ccc2c(CN3CCC(F)(F)C(CCc4ccccc4F)C3)c[nH]c2c1 (racemic) and stop.
stdout: 66%

stdin: Specify inhibition for Fc1ccc(CC[C@@H]2CN(Cc3c[nH]c4cc(Cl)ccc34)CCC2(F)F)cc1 and stop.
stdout: < 50%

stdin: Specify inhibition for Fc1ccc(CCC2CN(Cc3ncn4ccccc34)CCC2(F)F)cc1 (racemic) and stop.
stdout: < 50%

stdin: Specify inhibition for Fc1ccc2c(CN3CCC(F)(F)[C@@H](CCc4ccccc4F)C3)c[nH]c2c1 and stop.
stdout: < 50%

stdin: Specify inhibition for Fc1ccc(CC[C@@H]2CN(Cc3c[nH]c4cc(F)ccc34)CCC2(F)F)cc1 and stop.
stdout: < 50%

stdin: Specify inhibition for FC1(F)CCN(Cc2ncn3ccccc23)CC1CCc1ccccc1 (racemic) and stop.
stdout: < 50%

stdin: Specify inhibition for COc1ccc2c(CN3CCC(F)(F)[C@H](CCc4cccc(F)c4)C3)c[nH]c2c1 and stop.
stdout: < 50%

====

- procedure.text: Intrinsic clearance in rat liver microsomes by HPLC/MS analysis
- Assay type: ADME
- condition.parameters: read-out: CLH
Rule: CLint scaled below 1000 mL/min/kg gives 1, anything at or above gives -1.

Some solved cases for reference:
# smiles.notation, answer.label
measured = [
    ("Fc1ccc2c(CN3CCC(F)(F)[C@H](CCc4ccccc4)C3)c[nH]c2c1", -1),
    ("Fc1ccc(CC[C@@H]2CN(Cc3c[nH]c4cc(Cl)ccc34)CCC2(F)F)cc1", 1),
    ("Fc1ccc2[nH]cc(CN3CCC(F)(F)[C@@H](CCc4ccccc4)C3)c2c1", -1),
    ("Fc1ccccc1CC[C@@H]1CN(Cc2c[nH]c3cc(Cl)ccc23)CCC1(F)F", -1),
]

stdin: Consider the compound Cc1ccc(CN2CCC(F)(F)[C@H](CCc3ccccc3)C2)cc1C . Is its CLint scaled strictly less than 1000 mL/min/kg?
stdout: -1

stdin: Consider the compound COc1ccc2c(CN3CCC(F)(F)[C@H](CCc4cccc(F)c4)C3)c[nH]c2c1 . Is its CLint scaled strictly less than 1000 mL/min/kg?
stdout: -1

stdin: Consider the compound COc1ccc2c(CN3CCC(F)(F)[C@H](CCc4ccc(F)cc4)C3)c[nH]c2c1 . Is its CLint scaled strictly less than 1000 mL/min/kg?
stdout: 1

====

- procedure.text: Intrinsic clearance in human liver microsomes by HPLC/MS analysis
- Assay type: ADME
- condition.parameters: read-out: CLH
Rule: CLint scaled below 100 mL/min/kg gives 1, anything at or above gives 0.

# smiles.notation, answer.label
data = [
    ("Fc1ccc2[nH]cc(CN3CCC(F)(F)[C@@H](CCc4ccccc4)C3)c2c1", 1),
]

stdin: Consider the molecule Fc1ccccc1CC[C@@H]1CN(Cc2c[nH]c3cc(Cl)ccc23)CCC1(F)F . Is its CLint scaled strictly less than 100 mL/min/kg?
stdout: 0

stdin: Consider the molecule Cc1ccc(CN2CCC(F)(F)[C@H](CCc3ccccc3)C2)cc1C . Is its CLint scaled strictly less than 100 mL/min/kg?
stdout: 0

stdin: Consider the molecule Fc1ccc2c(CN3CCC(F)(F)[C@H](CCc4ccccc4)C3)c[nH]c2c1 . Is its CLint scaled strictly less than 100 mL/min/kg?
stdout: 0

stdin: Consider the molecule COc1ccc2c(CN3CCC(F)(F)[C@H](CCc4ccc(F)cc4)C3)c[nH]c2c1 . Is its CLint scaled strictly less than 100 mL/min/kg?
stdout: 0

stdin: Consider the molecule COc1ccc2c(CN3CCC(F)(F)[C@H](CCc4cccc(F)c4)C3)c[nH]c2c1 . Is its CLint scaled strictly less than 100 mL/min/kg?
stdout: 0

====

IC50 values for the compounds below.
- procedure.text: Displacement of [3H]Spiperone from recombinant human Dopamine D4.4 receptor expressed in CHO-K1 cell membranes after 120 mins
Number in nM, nothing else.

stdin: Specify IC50 for COc1ccc(CCC2CN(Cc3c[nH]c4cc(OC)ccc34)CCC2(F)F)cc1 (racemic) and stop.
stdout: 430

stdin: Specify IC50 for COc1ccc2c(CN3CCC(F)(F)C(CCc4ccccc4F)C3)c[nH]c2c1 (racemic) and stop.
stdout: 21

stdin: Specify IC50 for COc1ccc2cc(CN3CCC(F)(F)[C@H](CCc4ccccc4)C3)c(OC)nc2c1 and stop.
stdout: 88

stdin: Specify IC50 for COc1cccc(CCC2CN(Cc3c[nH]c4cc(F)ccc34)CCC2(F)F)c1 (racemic) and stop.
stdout: 1540

stdin: Specify IC50 for FC1(F)CCN(Cc2ncn3ccccc23)CC1CCc1ccccc1 (racemic) and stop.
stdout: 120

stdin: Specify IC50 for COc1ccc(CN2CCC(F)(F)C(CCc3ccccc3)C2)cc1 (racemic) and stop.
stdout: 430
